B1: FAM46C (parent)
chain: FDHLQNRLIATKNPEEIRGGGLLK

Variants of: B1
PROTOCOL NOTES: protein stability index of a GFP-peptide fusion (GPS, HEK-293T) (PSI 1-6); higher = more stable;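 further: lentivirally expressed fusions sorted by FACS into six bins by GFP to DsRed ratio, PSI derived from sequencing read proportions per bin multiplied by bin number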
SETTINGS: c terminus: a fixed tail appended
TEST READOUT: protein stability index
Provide a numeric answer; units are not to be included.

Identify protein stability index associated with the variant R18N 3.83

Identify protein stability index associated with the variant I9N 4.06

Identify protein stability index associated with the variant L22Q 4.06

Identify protein stability index associated with the variant L8D 5.05

Identify protein stability index associated with the variant L22G 4.02

Identify protein stability index associated with the variant P14I 2.39

Identify protein stability index associated with the variant D2T 1.93

Identify protein stability index associated with the variant G20C 3.21

Identify protein stability index associated with the variant L4S 4.8

Identify protein stability index associated with the variant E16N 3.67

Identify protein stability index associated with the variant G21C 3.29

Identify protein stability index associated with the variant Q5L 2.17

Identify protein stability index associated with the variant T11V 3.74

Identify protein stability index associated with the variant A10N 4.07

Identify protein stability index associated with the variant G19N 3.79

Identify protein stability index associated with the variant L22M 4

Identify protein stability index associated with the variant I9Q 4.57

Identify protein stability index associated with the variant R18L 3.39

Identify protein stability index associated with the variant P14C 3.74

Identify protein stability index associated with the variant A10D 4.49

Identify protein stability index associated with the variant T11M 3.7

Identify protein stability index associated with the variant K24R 3.35

Hey, just so you know, these numbers are from the supplement of paper PMC10567573.
